Record form. Attribute: Ki. Fill in for each entry.
molecular target: T1, PKCγ; experiment: in vitro PKC gamma kinase activity assay, 33P-ATP, Flash Plate
T1 construct: Bought enzyme; also called PKC gamma

Request: Using the record for VELDPEFEPRARERAYAFGH (Made from peptide 2 by changing Thr at position 15 to Ala) [Peptide 4] , state its measured Ki.
Response: > 30 µM

Request: In one line, give reported Ki of the entry VELDPEFEPRARERTYSFGH [Peptide 1] .
Response: > 30 µM

The reported measurements were obtained from patent US20040038883A1.
